target: 3-oxo-5-alpha-steroid 4-dehydrogenase 1 (Homo sapiens)
Sequence (P18405 whole entry): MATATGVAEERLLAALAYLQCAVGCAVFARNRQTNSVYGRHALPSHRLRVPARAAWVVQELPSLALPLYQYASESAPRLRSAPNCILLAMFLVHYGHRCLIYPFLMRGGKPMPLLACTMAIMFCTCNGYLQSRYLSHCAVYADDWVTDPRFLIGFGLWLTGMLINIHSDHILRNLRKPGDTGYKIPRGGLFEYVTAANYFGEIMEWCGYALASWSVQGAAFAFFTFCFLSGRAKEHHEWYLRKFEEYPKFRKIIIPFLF
READOUT: IC50 (µM)

I: C[C@@H]1CC2=CC(=O)CCN2c2ccc(Cl)cc21
II: C[C@H]1Cc2cc(Cl)ccc2N2CCC(=O)C=C12
*Q* Which entry has a larger number for IC50, I or II ? Please respond with the label that marks your chosen entry.
*A* II
(II: 0.346 µM, I: 0.0144 µM)
